Origin of the recorded values: ChEMBL document CHEMBL1135673

In this section, each of the molecules is paired with its reported pIC50.
- ASSAY_REMARKS: In vitro cytotoxicity against human xeroderma pigmentosum fibroblast cells HMGZip (mer-)
- Type: functional, cell-based
Peptide text beside a SMILES is read from it. * marks the point of attachment. X1 = O=C(c1ncn2c(=O)n(CCCl)nnc12)*
Value format note: pIC50 is -log10 of concentration (mol/L); just state the number.

# annotated cases, reported pIC50 shown
C[C@@H](NC(=O)c1ncn2c(=O)n(CCCl)nnc12)C(=O)O; 3.70
NC(=O)c1ncn2c(=O)n(CCCl)nnc12 [MITOZOLOMIDE]; 4.70
CC(C)[C@H](NC(=O)[C@@H](NC(=O)c1ncn2c(=O)n(CCCl)nnc12)[C@@H](C)O)C(=O)NCC(=O)N[C@@H](CCCN=C(N)N)C(=O)O (X1-TVGR-OH); 3.54
CC(C)[C@H](NC(=O)[C@@H](NC(=O)c1ncn2c(=O)n(CCCl)nnc12)[C@@H](C)O)C(=O)NCC(=O)O; 3.36
CC(C)[C@H](NC(=O)[C@@H](NC(=O)c1ncn2c(=O)n(CCCl)nnc12)[C@@H](C)O)C(=O)N[C@@H](CO)C(=O)N[C@@H](CCCN=C(N)N)C(=O)O (X1-TVSR-OH); 3.45
COC(=O)C(CCCCN)NC(=O)c1ncn2c(=O)n(CCCl)nnc12 (stereo not drawn); 4.17

Lab book: pIC50 of CC(C)C[C@@H](NC(=O)c1ncn2c(=O)n(CCCl)nnc12)C(=O)O noted as 4.24

Lab book: pIC50 of NCCCCC(NC(=O)c1ncn2c(=O)n(CCCl)nnc12)C(=O)O (stereo not drawn) noted as 4.38

----------
In this section, each of the compounds is paired with its reported log10 of IC50.
- ASSAY_REMARKS: In vitro cytotoxicity against mouse TLX5 lymphoma cells
- Assay type: functional, cell-based
Please interpret these as log10 of IC50 where IC50 is in µM.

# annotated cases, reported log10 of IC50 shown
CCOC(=O)CNC(=O)c1ncn2c(=O)n(CCCl)nnc12; 1.40
Cn1nnc2c(C(N)=O)ncn2c1=O [TEMOZOLOMIDE]; 0.70
COC(=O)C(C)NC(=O)c1ncn2c(=O)n(CCCl)nnc12 (stereo unspecified); 0.18
COC(=O)[C@@H](NC(=O)[C@H](C)NC(=O)c1ncn2c(=O)n(CCCl)nnc12)C(C)C; 0.84
COC(=O)C(CO)NC(=O)c1ncn2c(=O)n(CCCl)nnc12 (stereo unspecified); 0.70

Lab book: log10 of IC50 of COC(=O)C(CCSC)NC(=O)c1ncn2c(=O)n(CCCl)nnc12 (stereo unspecified) noted as 1.70

Lab book: log10 of IC50 of CC(C)(C)NC(=O)c1ncn2c(=O)n(CCCl)nnc12 noted as 0.30

Lab book: log10 of IC50 of O=C(O)c1ncn2c(=O)n(CCCl)nnc12 noted as 1.20

Lab book: log10 of IC50 of COC(=O)C(Cc1c[nH]c2ccccc12)NC(=O)c1ncn2c(=O)n(CCCl)nnc12 (stereo unspecified) noted as 0.57

Lab book: log10 of IC50 of NC(=O)CNC(=O)c1ncn2c(=O)n(CCCl)nnc12 noted as 1.53

Lab book: log10 of IC50 of NC(=O)c1ncn2c(=O)n(CCCl)nnc12 [MITOZOLOMIDE] noted as 0.40
